Collected EC50 values appear next to each entry.
Biological target: Short transient receptor potential channel 4 (Mus musculus)
Sequence (Q9QUQ5 whole entry): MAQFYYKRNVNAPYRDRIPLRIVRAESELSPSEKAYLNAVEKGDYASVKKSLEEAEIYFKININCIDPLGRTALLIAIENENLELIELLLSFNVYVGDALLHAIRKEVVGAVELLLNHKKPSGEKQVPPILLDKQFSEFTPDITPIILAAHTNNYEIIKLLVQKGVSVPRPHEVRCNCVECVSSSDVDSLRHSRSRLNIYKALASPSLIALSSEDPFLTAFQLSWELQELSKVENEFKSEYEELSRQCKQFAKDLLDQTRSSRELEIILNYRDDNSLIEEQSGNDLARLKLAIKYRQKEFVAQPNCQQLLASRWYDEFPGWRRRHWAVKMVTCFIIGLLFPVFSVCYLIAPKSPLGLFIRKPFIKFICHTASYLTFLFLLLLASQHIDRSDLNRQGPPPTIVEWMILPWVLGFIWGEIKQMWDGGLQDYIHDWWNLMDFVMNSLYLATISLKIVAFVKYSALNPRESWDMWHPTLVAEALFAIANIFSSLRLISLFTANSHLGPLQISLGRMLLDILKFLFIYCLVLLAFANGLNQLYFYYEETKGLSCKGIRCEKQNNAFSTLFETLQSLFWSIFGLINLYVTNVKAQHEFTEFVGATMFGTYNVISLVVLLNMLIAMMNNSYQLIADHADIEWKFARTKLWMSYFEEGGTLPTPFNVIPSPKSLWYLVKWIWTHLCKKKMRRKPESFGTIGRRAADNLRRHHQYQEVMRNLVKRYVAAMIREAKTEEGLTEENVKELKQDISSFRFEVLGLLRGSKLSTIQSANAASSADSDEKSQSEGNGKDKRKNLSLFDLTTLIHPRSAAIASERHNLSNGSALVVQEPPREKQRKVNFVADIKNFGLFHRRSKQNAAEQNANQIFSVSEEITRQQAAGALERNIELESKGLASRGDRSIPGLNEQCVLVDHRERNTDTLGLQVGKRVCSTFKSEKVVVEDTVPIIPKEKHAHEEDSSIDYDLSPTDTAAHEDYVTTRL
Assay: block of DAMGO-driven TRPC4 calcium entry – cell-based, HEK293 TRPC4/mu-opioid, Fluo-4 calcium, dose response (AID 434942);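 also: potency of inhibitors blocking the TRPC4 calcium response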
Format: functional
Active and inactive are the calls of the source.
MEASURE NAME: EC50

# COMPOUND, MEASURE NAME, RESULT
data = [
    ("CN(C)C(CNC(=O)Cc1cccc(C(F)(F)F)c1)c1ccccc1 (centres undefined)", "EC50", "0.0093 µM (active)"),
    ("Clc1cccc(C[n+]2cc(-c3ccccc3)n3c2CCC3)c1", "EC50", "0.944 µM (active)"),
    ("Cc1cc(OCc2cc(C(=O)NCCN3CCCCC3CO)no2)cc(C)c1Cl (centres undefined)", "EC50", "2.99 µM (active)"),
    ("COc1ccc(F)cc1C(=O)C1CCCN(Cc2ccc3c(c2)OCCO3)C1 (centres undefined)", "EC50", "1.33 µM (active)"),
]

====

# AC50 per entry
molecular target: UniProt:P55789; test: ALR-catalysed DTT oxidation blockers – biochemical, H2O2 detection, luminescence, cherry-pick, dose response (AID 493248)
Sequence (P55789 whole entry): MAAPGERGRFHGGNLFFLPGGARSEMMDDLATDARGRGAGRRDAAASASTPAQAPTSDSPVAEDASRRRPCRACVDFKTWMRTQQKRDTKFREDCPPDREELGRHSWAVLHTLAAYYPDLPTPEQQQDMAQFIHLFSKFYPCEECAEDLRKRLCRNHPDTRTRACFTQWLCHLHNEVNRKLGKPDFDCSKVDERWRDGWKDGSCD
Calls of active or inactive are those of the source.

# COMPOUND, ASSAYED SYSTEM, AC50
records = [
    ("CC(C)c1cc(C(N)=O)c(NC(=O)C2CCC2)s1", "UniProt:P55789", "9.12 µM (active)"),
    ("CCc1c(C)c2cc(Cl)c(O)c(CN3CCCCC3)c2oc1=O", "UniProt:P55789", "9.26 µM (active)"),
    ("O=C(N/N=C1/CC/C(=N/NC(=O)c2cccnc2)CC1)c1cccnc1", "UniProt:P55789", "0.879 µM (active)"),
    ("CC(=O)N/N=C/c1cc(C)n(-c2ccc(Br)cc2)c1C", "UniProt:P55789", "0.414 µM (active)"),
    ("COc1cccc(N2CCN(Cc3cccnc3)CC2)c1", "UniProt:P55789", "10.3 µM (active)"),
    ("CCN(CC)c1ccc(C2CC(=O)Nc3cc(OC)c(OC)cc32)cc1 (configuration not stated)", "UniProt:P55789", "2.47 µM (active)"),
    ("COc1ccc(N2CCN(C(=O)NCc3ccc(OC)c(OC)c3)CC2)cc1", "UniProt:P55789", "5.76 µM (active)"),
    ("O=C(NCc1cccnc1)C(=O)NCC(c1ccco1)N1CCN(c2ccc(F)cc2)CC1 (configuration not stated)", "UniProt:P55789", "6.41 µM (active)"),
    ("CCn1c(S)nnc1CN1C(=O)CSc2ccccc21", "UniProt:P55789", "1.85 µM (active)"),
    ("CCC(=O)N1CCc2cc(S(=O)(=O)NCCC(=O)N3CCN(c4cccc(C)c4)C(C)C3)ccc21 (configuration not stated)", "UniProt:P55789", "72.4 µM (active)"),
    ("Cc1cc(NC(=O)C2CCCN(S(=O)(=O)c3c[nH]cn3)C2)ccc1Br (configuration not stated)", "UniProt:P55789", "69.2 µM (active)"),
    ("O=C(NCC1CC1)Nc1cccs1", "UniProt:P55789", "4.97 µM (active)"),
]

====

Let's look at some compounds and their measured EC50.
biological target: Zinc finger protein mex-5 (Caenorhabditis elegans); experiment: potency of MEX-5 RNA-binding blockers – biochemical, C. elegans, fluorescence polarization, dose response (AID 1960)
Sequence (Q9XUB2 whole entry): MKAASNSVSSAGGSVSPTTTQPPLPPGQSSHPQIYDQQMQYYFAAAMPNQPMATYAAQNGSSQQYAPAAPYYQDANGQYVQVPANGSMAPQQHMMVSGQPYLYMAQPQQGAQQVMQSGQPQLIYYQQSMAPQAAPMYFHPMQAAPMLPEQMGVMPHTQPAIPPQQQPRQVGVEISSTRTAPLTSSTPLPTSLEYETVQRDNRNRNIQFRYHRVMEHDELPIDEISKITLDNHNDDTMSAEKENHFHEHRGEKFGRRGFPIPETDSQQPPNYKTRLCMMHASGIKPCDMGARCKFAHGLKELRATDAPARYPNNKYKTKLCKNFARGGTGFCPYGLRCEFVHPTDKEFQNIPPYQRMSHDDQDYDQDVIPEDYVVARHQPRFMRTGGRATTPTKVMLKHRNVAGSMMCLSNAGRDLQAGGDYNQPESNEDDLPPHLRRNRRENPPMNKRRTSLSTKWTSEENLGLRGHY
Active and inactive are the calls of the source.

# STRUCTURE AS SMILES, ASSAYED SYSTEM, EC50
data = [
    ("O=C(N/N=C/c1cc(Cl)cc([N+](=O)[O-])c1O)c1ccc2c(c1)OCO2", "Zinc finger protein mex-5 (Caenorhabditis elegans)", "241 µM (active)"),
    ("CCN(CC)c1ccc2cc(NC(=O)CCC(=O)O)c(=O)oc2c1", "Zinc finger protein mex-5 (Caenorhabditis elegans)", "7.36 µM (active)"),
    ("CS(=O)(=O)Oc1ccc2c(c1)O/C(=C\\C=C\\c1ccccc1)C2=O", "Zinc finger protein mex-5 (Caenorhabditis elegans)", "3.83 µM (active)"),
    ("O=C(N/N=C/c1c(O)ccc2ccccc12)Nc1ccccc1", "Zinc finger protein mex-5 (Caenorhabditis elegans)", "> 300 µM (not active)"),
    ("CCOn1c(=O)c(-c2cc3ccccc3o2)[n+]([O-])c2ccccc21", "Zinc finger protein mex-5 (Caenorhabditis elegans)", "180 µM (inconclusive)"),
    ("Cc1cccc(/C=C(\\C(=O)C(=O)O)c2ccc3ccccc3n2)c1", "Zinc finger protein mex-5 (Caenorhabditis elegans)", "22.9 µM (active)"),
    ("CCOC(=O)c1c(/N=C/C2C(=O)NC(=S)NC2=O)sc(C)c1C", "Zinc finger protein mex-5 (Caenorhabditis elegans)", "> 300 µM (inconclusive)"),
    ("O=C1NC(=O)N(Cc2ccccc2)C(=O)/C1=C/NNC(=O)c1ccncc1", "Zinc finger protein mex-5 (Caenorhabditis elegans)", "93.9 µM (active)"),
]

====

Item-by-item account of IC50
molecular target: NADPH oxidase 1 (Homo sapiens, UniProt Q9Y5S8); type: functional, cell-based;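 also: Cell-based assay with luminescence read-out, IC50 derived from inhibitor dose-response curves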;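 also: intracellular ROS from endogenous NOX1 in intact HT29 colon cancer cells; potency of inhibitors that lower the ROS luminescence signal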
Sequence (Q9Y5S8 whole entry): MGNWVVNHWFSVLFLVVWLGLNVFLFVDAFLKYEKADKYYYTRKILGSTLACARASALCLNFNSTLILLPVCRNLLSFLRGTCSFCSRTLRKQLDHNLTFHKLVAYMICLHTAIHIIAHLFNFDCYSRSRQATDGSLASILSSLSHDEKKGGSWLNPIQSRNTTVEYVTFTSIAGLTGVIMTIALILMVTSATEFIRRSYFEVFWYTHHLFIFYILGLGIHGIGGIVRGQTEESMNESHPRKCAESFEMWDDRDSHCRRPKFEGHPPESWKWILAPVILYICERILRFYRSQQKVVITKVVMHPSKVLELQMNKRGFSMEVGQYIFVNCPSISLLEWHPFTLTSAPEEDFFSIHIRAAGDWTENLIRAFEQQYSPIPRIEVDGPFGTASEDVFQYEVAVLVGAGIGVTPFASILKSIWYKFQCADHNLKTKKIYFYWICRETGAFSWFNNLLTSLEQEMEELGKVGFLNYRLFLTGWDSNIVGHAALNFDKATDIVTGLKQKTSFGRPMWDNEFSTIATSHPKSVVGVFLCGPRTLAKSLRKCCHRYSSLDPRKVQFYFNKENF
Calls of active or inactive are those of the source.
MEASURE NAME: IC50

# STRUCTURE AS SMILES, RESULT
rows = [
    ("CCN(CC)c1ccc(NC(=O)Nc2ccc(OCc3ccccc3)cc2)cc1", "235 nM (active)"),
    ("CSc1ccc(NC(=O)Nc2ccc(N(C)C)cc2)cc1", "77.7 nM (active)"),
    ("O=C(Oc1ccc([N+](=O)[O-])cc1)c1sc2ccccc2c1Cl", "> 17000 nM (not active)"),
    ("Fc1ccc(NC(=S)NNC(=S)Nc2ccccc2)cc1", "218 nM (active)"),
]

====

test: luciferase reporter signal suppression in cells – H4 neuroglioma cells, luminescence, dose response (AID 1990); assay type: functional, cell-based
Calls of active or inactive are those of the source.
MEASURE NAME: EC50

# COMPOUND, RESULT
measured = [
    ("N=C(N)N/N=C/c1ccc(N(c2ccccc2)c2ccccc2)cc1", "8890 nM (active)"),
    ("Fc1ccc(-c2csc3ncnc(N4CCc5ccccc5C4)c23)cc1", "23600 nM (active)"),
    ("CCOc1ccc(C2=Nn3c(nnc3-c3ccccc3OC)SC2)cc1", "< 100 nM (active)"),
    ("CCC(C)Cn1c(O)cc2nn(-c3nc4ccccc4s3)c(=O)c-2c1C (stereo unspecified)", "< 100 nM (active)"),
    ("CCOC(=O)CSC1=C(C#N)C(c2ccc(C)o2)CC(=O)N1 (stereo unspecified)", "2610 nM (active)"),
    ("CCN(CC)c1ccc2cc(NC(=O)CCC(=O)O)c(=O)oc2c1", "< 100 nM (active)"),
]

Origin of the recorded values: ChEMBL document CHEMBL1201862
